# Tested on: Neutrophil
# Test Summary: Antiinflammatory activity in human neutrophils assessed as fMLP-induced superoxide release after 5 mins by spectrometry
# Assay type: functional, cell-based
Binary label based on IC50 with cut-off 30 µM: below gives Y, not below gives N.

Consider the following illustrative entries.
Input: Identify whether the compound `Cn1c(=O)c2c(c3ccccc31)OC(C)(C)[C@@H]1[C@@H]2C[C@]2(C)C[C@H]1c1c(c3ccccc3n(C)c1=O)O2` records IC50 below 30 µM.
Output: N

Input: Identify whether the compound CC(C)Cc1ccc(C(C)C(=O)O)cc1 (centres undefined) records IC50 below 30 µM.
Output: N

Input: Identify whether the compound `COc1cc2oc(=O)ccc2cc1O` records IC50 below 30 µM.
Output: N

Input: Identify whether the compound `COc1cc([C@H]2Oc3c(OC)cc(/C=C/C=O)cc3[C@@H]2CO)ccc1O` records IC50 below 30 µM.
Output: N

Input: Identify whether the compound `COc1cc(/C=C/CO)ccc1OCC=C(C)C` records IC50 below 30 µM.
Output: N

Continuing:
Input: Identify whether the compound `CC(C)(O)[C@H](O)COc1ccc(/C=C/CO)cc1` records IC50 below 30 µM.
Output: N

Input: Identify whether the compound `COc1c2ccoc2nc2c(OC)cccc12` records IC50 below 30 µM.
Output: N

Input: Identify whether the compound `COc1cc2ccc(=O)oc2cc1OC` records IC50 below 30 µM.
Output: N

Input: Identify whether the compound `COc1c2[nH]c3occc3c(OC)c-2ccc1=O` records IC50 below 30 µM.
Output: N

Input: Identify whether the compound `CC(C)=CCc1cc(/C=C/CO)ccc1O` records IC50 below 30 µM.
Output: N

Input: Identify whether the compound `Cn1c(=O)c2c(c3ccccc31)O[C@]1(C)C[C@@H]3c4c(c5ccccc5[nH]c4=O)OC(C)(C)[C@H]3[C@H]2C1` records IC50 below 30 µM.
Output: N

Input: Identify whether the compound `COc1cc(C=O)cc(OC)c1O` records IC50 below 30 µM.
Output: N

Input: Identify whether the compound `COc1cc2ccc(=O)oc2c(OC)c1OC` records IC50 below 30 µM.
Output: N

Input: Identify whether the compound `Cn1c(=O)c2c(c3ccccc31)OC(C)(C)C=C2` records IC50 below 30 µM.
Output: Y

Input: Identify whether the compound `COc1cc([C@H]2Oc3c(OC)cc(/C=C/C=O)cc3[C@@H]2CO)cc(OC)c1O` records IC50 below 30 µM.
Output: Y

Input: Identify whether the compound `C[C@H](c1ccccc1)c1cccc([C@@H](C)c2ccccc2)c1O` records IC50 below 30 µM.
Output: N
